Where these numbers come from: ChEMBL document CHEMBL1123806

# protocol summary: Tissue acid-soluble sulfhydryl levels of liver of ICR/Ha mice.
# Assay type: functional, Mus musculus
Provide the recorded SH level for the entries that follow.
Numbers only, in µM/g.

INSERT INTO results (molecule, endpoint_result) VALUES
  ('C[C@@]12CCc3occc3C1CC[C@]13CCC(CCC12)C3 (stereo partly specified)', 13),
  ('CC(=O)OC1C[C@@]23CCC4c5ccoc5CC[C@@]4(C)C2CCC1C3 (stereo partly specified)', 13.3),
  ('C[C@@]12C=Cc3occc3C1CC[C@@]13CC(CCC12)C(O)(CO)C3 (stereo partly specified)', 13),
  ('C[C@@]12CCc3occc3C1CC[C@]13CC(O)C(CCC12)C3 (stereo partly specified)', 12.8),
  ('CC(=O)OC[C@@]1(O)C[C@@]23CCC4C5=C(CC[C@@]4(C)C2CCC1C3)OCC5 (stereo partly specified)', 15.6),
  ('CC(=O)OC[C@@]1(O)C[C@@]23CC[C@@H]4c5ccoc5CC[C@@]4(C)[C@@H]2CC[C@@H]1C3 [CAFESTOL ACETATE]', 14.3);

Here are 5 molecules. What values of SH level were reported for them?
1. C[C@@]12CCc3occc3C1CC[C@]13CC(=O)C(CCC12)C3 (stereo partly specified)
2. C[C@@]12CCC3=C(CCO3)C1CC[C@@]13CC(CCC12)[C@@](O)(CO)C3 (stereo partly specified)
3. C[C@@]12C=Cc3occc3C1CC[C@]13CC(=O)C(CCC12)C3 (stereo partly specified)
4. CC1(O)C[C@@]23CCC4c5ccoc5CC[C@@]4(C)C2CCC1C3 (stereo partly specified)
5. C[C@@]12CCc3occc3C1CC[C@@]13CC(CCC12)C(O)(CO)C3 (stereo partly specified)

Found:
13.3
11.9
11.8
16.3
14.9

* * *

# experimental system: UniProt P10649
# Sequence (whole entry): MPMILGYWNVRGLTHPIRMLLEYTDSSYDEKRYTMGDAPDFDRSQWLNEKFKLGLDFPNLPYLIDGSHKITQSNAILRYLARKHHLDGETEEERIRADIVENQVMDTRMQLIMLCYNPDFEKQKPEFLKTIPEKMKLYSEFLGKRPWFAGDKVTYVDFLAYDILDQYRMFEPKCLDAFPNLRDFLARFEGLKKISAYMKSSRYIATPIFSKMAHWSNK
# protocol summary: GST activity in the cytosols of the forestomach of ICR/Ha mice was determined by using 1-Chloro-2,4-dinitrobenzene as the substrate
# Format: functional, tissue-based
# assay context: Stomach
Categories are assigned from the measured Specific activity (uM min-1 (mg of protein)-1) using these intervals: zone 1 (below 0.8), zone 2 (0.8 to below 0.9), zone 3 (0.9 or more)

Some entries whose results are on file:
INSERT INTO results (compound, class) VALUES
  ('C[C@@]12C=Cc3occc3C1CC[C@@]13CC(CCC12)C(O)(CO)C3 (some centres not stated)', 'zone 3'),
  ('C[C@@]12CCc3occc3C1CC[C@]13CCC(CCC12)C3 (some centres not stated)', 'zone 2'),
  ('CC(=O)OC1C[C@@]23CCC4c5ccoc5C=C[C@@]4(C)C2CCC1C3 (some centres not stated)', 'zone 3'),
  ('CC(=O)OC1C[C@@]23CCC4c5ccoc5CC[C@@]4(C)C2CCC1C3 (some centres not stated)', 'zone 2'),
  ('C[C@@]12C=Cc3occc3C1CC[C@]13CCC(CCC12)C3 (some centres not stated)', 'zone 1');

Lookup: Kindly identify the class of CC1(O)C[C@@]23CCC4c5ccoc5CC[C@@]4(C)C2CCC1C3 (some centres not stated) .
Found: zone 1

Lookup: Kindly identify the class of C[C@@]12C=Cc3occc3C1CC[C@]13CC(O)C(CCC12)C3 (some centres not stated) .
Found: zone 3

Lookup: Kindly identify the class of C[C@@]12C=Cc3occc3C1CC[C@]13CC(=O)C(CCC12)C3 (some centres not stated) .
Found: zone 3

* * *

# experimental system: Glutathione S-transferase Mu 1 (Mus musculus)
# protocol summary: Ratio is the compound /control(Specific activity in small bowel mucosa(GST))
# Format: functional
Categories are assigned from the measured Ratio using these intervals: low end (below 4), middle (4 to below 6), high end (6 or more)

Lookup: Kindly identify the class of C[C@@]12CC[C@@H]3OCC[C@@H]3C1CC[C@@]13CC(CCC12)[C@@](O)(CO)C3 (some centres not stated) .
Found: low end

* * *

Provide the recorded Specific activity (uM min-1 (mg of protein)-1) for the entries that follow.
# experimental system: UniProt P10649
# Sequence (whole entry): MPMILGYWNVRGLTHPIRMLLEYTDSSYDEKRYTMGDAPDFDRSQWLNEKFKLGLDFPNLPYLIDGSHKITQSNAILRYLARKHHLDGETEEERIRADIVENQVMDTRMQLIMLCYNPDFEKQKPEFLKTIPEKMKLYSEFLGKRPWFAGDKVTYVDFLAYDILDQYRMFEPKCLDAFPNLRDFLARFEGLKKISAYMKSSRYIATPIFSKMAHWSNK
# protocol summary: GST activity in the cytosols of the lung of ICR/Ha mice was determined by using 1-Chloro-2,4-dinitrobenzene as the substrate
# Format: functional
Answers are plain numbers.

Take a look at these entries with their results.
INSERT INTO results (compound, experimental_system, endpoint_result) VALUES
  ('C[C@@]12CCc3occc3C1CC[C@@]13CC(CCC12)C(O)(CO)C3 (stereo not given in full)', 'UniProt P10649', 0.26),
  ('CC(=O)OC1C[C@@]23CCC4c5ccoc5CC[C@@]4(C)C2CCC1C3 (stereo not given in full)', 'UniProt P10649', 0.29),
  ('C[C@@]12CCc3occc3C1CC[C@]13CC(=O)C(CCC12)C3 (stereo not given in full)', 'UniProt P10649', 0.29),
  ('CC(=O)OC1C[C@@]23CCC4c5ccoc5C=C[C@@]4(C)C2CCC1C3 (stereo not given in full)', 'UniProt P10649', 0.3);

// next entry
Lookup: # get_value(readout='Specific activity (uM min-1 (mg of protein)-1)', item= CC1(O)C[C@@]23CCC4c5ccoc5CC[C@@]4(C)C2CCC1C3 (stereo not given in full) )
Found: 0.27

* * *

# experimental system: Glutathione S-transferase Mu 1 (Mus musculus) (UniProt P10649)
# Sequence (whole entry): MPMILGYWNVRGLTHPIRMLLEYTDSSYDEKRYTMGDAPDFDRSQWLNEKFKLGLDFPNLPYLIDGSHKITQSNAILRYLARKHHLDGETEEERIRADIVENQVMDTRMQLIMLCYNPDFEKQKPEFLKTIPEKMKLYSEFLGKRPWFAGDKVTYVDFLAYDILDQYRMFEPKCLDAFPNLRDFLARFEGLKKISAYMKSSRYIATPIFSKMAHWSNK
# protocol summary: Ratio is the compound /control(Specific activity in liver(GST))
# Assay type: functional, tissue-based
quantity kind: Ratio
Numbers only.

Here are 5 molecules. What values of Ratio were reported for them?
1. CC(=O)OC[C@@]1(O)C[C@@]23CCC4C5=C(CC[C@@]4(C)C2CCC1C3)OCC5 (some centres not stated)
2. C[C@@]12C=Cc3occc3C1CC[C@]13CCC(CCC12)C3 (some centres not stated)
3. C[C@@]12CCc3occc3C1CC[C@@]13CC(CCC12)C(O)(CO)C3 (some centres not stated)
4. C[C@@]12CCc3occc3C1CC[C@]13CC(O)C(CCC12)C3 (some centres not stated)
5. CC(=O)OC1C[C@@]23CCC4c5ccoc5C=C[C@@]4(C)C2CCC1C3 (some centres not stated)

Found:
1. 1.08
2. 2.1
3. 2
4. 1.5
5. 2.6

Here are 2 molecules. What values of Ratio were reported for them?
1. CC(=O)OC[C@@]1(O)C[C@@]23CCC4[C@H]5CCO[C@H]5CC[C@@]4(C)C2CCC1C3 (some centres not stated)
2. CC(=O)OC1C[C@@]23CCC4c5ccoc5CC[C@@]4(C)C2CCC1C3 (some centres not stated)

Found:
1.06
1.3

* * *

Provide the recorded Specific activity (uM min-1 (mg of protein)-1) for the entries that follow.
# experimental system: Glutathione S-transferase Mu 1 (Mus musculus)
# Sequence (whole entry): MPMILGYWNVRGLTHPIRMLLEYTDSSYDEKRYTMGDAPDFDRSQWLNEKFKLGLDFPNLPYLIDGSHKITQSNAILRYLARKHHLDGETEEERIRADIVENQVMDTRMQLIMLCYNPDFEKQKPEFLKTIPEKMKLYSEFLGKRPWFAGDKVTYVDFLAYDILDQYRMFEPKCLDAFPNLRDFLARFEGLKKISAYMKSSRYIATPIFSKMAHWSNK
# protocol summary: GST activity in the cytosols of liver of ICR/Ha mice, using 1-Chloro-2,4-dinitrobenzene as substrate
# Assay type: functional, tissue-based
Numbers only.

INSERT INTO results (molecule, experimental_system, endpoint_result) VALUES
  ('C[C@@]12C=Cc3occc3C1CC[C@]13CC(O)C(CCC12)C3 (stereo not given in full)', 'Glutathione S-transferase Mu 1 (Mus musculus)', 3.57),
  ('CC(=O)OC[C@@]1(O)C[C@@]23CCC4[C@H]5CCO[C@H]5CC[C@@]4(C)C2CCC1C3 (stereo not given in full)', 'Glutathione S-transferase Mu 1 (Mus musculus)', 1.25),
  ('C[C@@]12CCC3=C(CCO3)C1CC[C@@]13CC(CCC12)[C@@](O)(CO)C3 (stereo not given in full)', 'Glutathione S-transferase Mu 1 (Mus musculus)', 1.22),
  ('CC(=O)OC1C[C@@]23CCC4c5ccoc5C=C[C@@]4(C)C2CCC1C3 (stereo not given in full)', 'Glutathione S-transferase Mu 1 (Mus musculus)', 3.68);

Here are 7 molecules. What values of Specific activity (uM min-1 (mg of protein)-1) were reported for them?
1. CC1(O)C[C@@]23CCC4c5ccoc5C=C[C@@]4(C)C2CCC1C3 (stereo not given in full)
2. C[C@@]12CCc3occc3C1CC[C@@]13CC(CCC12)C(O)(CO)C3 (stereo not given in full)
3. CC(=O)OC1C[C@@]23CCC4c5ccoc5CC[C@@]4(C)C2CCC1C3 (stereo not given in full)
4. C[C@@]12CCc3occc3C1CC[C@]13CC(=O)C(CCC12)C3 (stereo not given in full)
5. C[C@@]12CC[C@@H]3OCC[C@@H]3C1CC[C@@]13CC(CCC12)[C@@](O)(CO)C3 (stereo not given in full)
6. CC(=O)OC[C@@]1(O)C[C@@]23CC[C@@H]4c5ccoc5CC[C@@]4(C)[C@@H]2CC[C@@H]1C3 [CAFESTOL ACETATE]
7. C[C@@]12C=Cc3occc3C1CC[C@]13CCC(CCC12)C3 (stereo not given in full)

Found:
1: 2.59; 2: 3.35; 3: 2.24; 4: 2.85; 5: 1.48; 6: 3.24; 7: 3.06
